Origin of the recorded values: the supplement of paper PMC10567573

B1: SPRY1 (parent)
chain: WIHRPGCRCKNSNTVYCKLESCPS

Variants of: B1
Assay: protein stability index of a GFP-peptide fusion (GPS, HEK-293T) (PSI 1-6); higher = more stable;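 note: lentivirally expressed fusions sorted by FACS into six bins by GFP to DsRed ratio, PSI derived from sequencing read proportions per bin multiplied by bin number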
Details: c terminus: a fixed tail appended
Listed variants paired with reported protein stability index
Please state the value as a number alone, without comment.

Here is how some variants turned out for protein stability index.
Variant spec: C17S
protein stability index: 2.13
--
Variant spec: K10H
protein stability index: 2.77
--
Variant spec: C22V
protein stability index: 2.52
--
Variant spec: R4A
protein stability index: 2.51

Task: Would you kindly share the measured protein stability index for S24Q ?
Result: 2.13

Task: Name the reported protein stability index value associated with the variant C7M
Result: 2.14

Task: What value of protein stability index has been recorded for this entry: S24Y
Result: 3.13

Task: I have this variant here, E20C , and I need its recorded protein stability index.
Result: 2.41

Task: Can you look up the measured protein stability index of C9H for me?
Result: 1.85

Task: Looking for the measured protein stability index of P23K , can you help?
Result: 2.15

Task: Which protein stability index is listed for C17V ?
Result: 3.78

Task: Recorded protein stability index of C17G , please.
Result: 2.81

Task: # get_value(readout='protein stability index', item= W1Y )
Result: 2.13

Task: # input variant: R8F ; wanted: its protein stability index
Result: 2.08

Task: Item under review: H3G . Reported protein stability index?
Result: 2.76

Task: Entry V15S : reported protein stability index = ?
Result: 2.35

Task: protein stability index lookup needed for K10L , thanks.
Result: 1.96

Task: Return reported protein stability index; argument: N13M
Result: 2.74

Task: Can you look up the measured protein stability index of I2D for me?
Result: 3.9

Task: Any idea what its protein stability index is? The variant is K18V
Result: 1.7

Task: # lookup: protein stability index of C17H
Result: 2.3
